Target: H5VN04 trimeric HA (recombinant hemagglutinin) (influenza A virus (H5VN04), UniProt Q6DQ33)
Experiment: SPR
Listing of entries alongside the reported pKd.
# pKd is unitless: minus log10 of the molar concentration; print number only

{"binder": "CR6261 Y98A scFv (scFv, V domains shown) VH: EVQLVESGAEVKKPGSSVKVSCKASGGPFRSYAISWVRQAPGQGPEWMGGIIPIFGTTKYAPKFQGRVTITADDFAGTVYMELSSLRSEDTAMYYCAKHMGAQVRETMDVWGKGTTVTVSS VL: QSVLTQPPSVSAAPGQKVTISCSGSSSNIGNDYVSWYQQLPGTAPKLLIYDNNKRPSGIPDRFSGSKSGTSATLGITGLQTGDEANYYCATWDRRPTAYVVFGGGTKLTVL", "observed.property": "pKd", "number": 5.80}

Entry F10 scFv (wild type) (scFv, V domains shown) VH: QVQLVQSGAEVKKPGSSVKVSCTSSEVTFSSFAISWVRQAPGQGLEWLGGISPMFGTPNYAQKFQGRVTITADQSTRTAYMDLRSLRSEDTAVYYCARSPSYICSGGTCVFDHWGQGTLVTVSS VL: QPGLTQPPSVSKGLRQTATLTCTGNSNNVGNQGAAWLQQHQGHPPKLLSYRNNDRPSGISERFSASRSGNTASLTITGLQPEDEADYYCSTWDSSLSAVVFGGGTKLTVL : reported pKd = ? 10.00

Then this binder: CR6261 F54A scFv (scFv, V domains shown) VH: EVQLVESGAEVKKPGSSVKVSCKASGGPFRSYAISWVRQAPGQGPEWMGGIIPIAGTTKYAPKFQGRVTITADDFAGTVYMELSSLRSEDTAMYYCAKHMGYQVRETMDVWGKGTTVTVSS VL: QSVLTQPPSVSAAPGQKVTISCSGSSSNIGNDYVSWYQQLPGTAPKLLIYDNNKRPSGIPDRFSGSKSGTSATLGITGLQTGDEANYYCATWDRRPTAYVVFGGGTKLTVL 6.54

Thanks! And CR6261 scFv (wild type) (scFv, V domains shown) VH: EVQLVESGAEVKKPGSSVKVSCKASGGPFRSYAISWVRQAPGQGPEWMGGIIPIFGTTKYAPKFQGRVTITADDFAGTVYMELSSLRSEDTAMYYCAKHMGYQVRETMDVWGKGTTVTVSS VL: QSVLTQPPSVSAAPGQKVTISCSGSSSNIGNDYVSWYQQLPGTAPKLLIYDNNKRPSGIPDRFSGSKSGTSATLGITGLQTGDEANYYCATWDRRPTAYVVFGGGTKLTVL ? 9.47
